# Test system: NCI-H1975
# ASSAY SUMMARY: relative viability (nuclei count vs DMSO), 5 days (fraction); higher = more cells survive
# REPORTED CONDITIONS: first compound 0.2 µM
Entries whose relative viability is below 1 take Met; entries at or above 1 take Not met.

COMPOUND	LABEL CLASS
COCC1(CO)C(=O)C2CCN1CC2 (stereo unspecified) [PRIMA-1MET] + C[C@@H](Oc1cc(-c2cnn(C3CCNCC3)c2)cnc1N)c1c(Cl)ccc(F)c1Cl [Crizotinib] (partner 1 µM)	Not met
COCC1(CO)C(=O)C2CCN1CC2 (stereo unspecified) [PRIMA-1MET] + Cc1nc(NC(=O)N2CCC[C@H]2C(N)=O)sc1-c1ccnc(C(C)(C)C(F)(F)F)c1 [Alpelisib] (partner 2 µM)	Met
COCC1(CO)C(=O)C2CCN1CC2 (stereo unspecified) [PRIMA-1MET] + COc1cccc2cc(-c3nc([C@H]4CC[C@H](C(=O)O)CC4)n4ncnc(N)c34)[nH]c12 [OSI-027] (partner 0.5 µM)	Met
COCC1(CO)C(=O)C2CCN1CC2 (stereo unspecified) [PRIMA-1MET] + Cc1cc(Nc2cc(N3CCN(C)CC3)nc(Sc3ccc(NC(=O)C4CC4)cc3)n2)n[nH]1 [Tozasertib] (partner 0.1 µM)	Not met

We next turn to a different compound, shown below.
Problem: For the compound COCC1(CO)C(=O)C2CCN1CC2 (stereo unspecified) [PRIMA-1MET] + CS(=O)(=O)N1CCN(Cc2cc3nc(-c4cccc5[nH]ncc45)nc(N4CCOCC4)c3s2)CC1 [Pictilisib] (partner 1 µM) , is relative viability under 1?
Met

* * *

Listed here are compounds together with their documented relative viability.
# Tested on: PC-3 [JPC-3]
# ASSAY SUMMARY: relative viability (nuclei count vs DMSO), 5 days (fraction); higher = more cells survive
# REPORTED CONDITIONS: first compound 2.53 µM

// below: answered compounds
COMPOUND	TEST VALUE
COc1nc(C)cnc1NS(=O)(=O)c1cccnc1-c1ccc(-c2nnco2)cc1 [Zibotentan] + CC(=O)c1c(C)c2cnc(Nc3ccc(N4CCNCC4)cn3)nc2n(C2CCCC2)c1=O [Palbociclib] (partner 0.5 µM)	0.581
O=c1cc(-c2cccc3c2Sc2ccccc2S3)oc(N2CCOCC2)c1 + NC(=O)Nc1cc(-c2cccc(F)c2)sc1C(=O)N[C@H]1CCCNC1 [AZD7762] (partner 0.2 µM)	0.766
COc1nc(C)cnc1NS(=O)(=O)c1cccnc1-c1ccc(-c2nnco2)cc1 [Zibotentan] + NC(=O)Nc1cc(-c2cccc(F)c2)sc1C(=O)N[C@H]1CCCNC1 [AZD7762] (partner 0.2 µM)	0.861

response.value for COc1nc(C)cnc1NS(=O)(=O)c1cccnc1-c1ccc(-c2nnco2)cc1 [Zibotentan] + C[C@]1(O)C[C@@H](c2nc(-c3ccc4ccc(-c5ccccc5)nc4c3)c3c(N)nccn32)C1 [Linsitinib] (partner 1 µM) (field: relative viability) = 0.98

response.value for O=c1cc(-c2cccc3c2Sc2ccccc2S3)oc(N2CCOCC2)c1 + Nc1nc2[nH]cc(CCc3ccc(C(=O)N[C@@H](CCC(=O)O)C(=O)O)cc3)c2c(=O)[nH]1 [Pemetrexed] (partner 0.2 µM) (field: relative viability) = 0.996

response.value for O=c1cc(-c2cccc3c2Sc2ccccc2S3)oc(N2CCOCC2)c1 + C[C@@H](Oc1cc(-c2cnn(C3CCNCC3)c2)cnc1N)c1c(Cl)ccc(F)c1Cl [Crizotinib] (partner 1 µM) (field: relative viability) = 0.971

response.value for COc1nc(C)cnc1NS(=O)(=O)c1cccnc1-c1ccc(-c2nnco2)cc1 [Zibotentan] + CC(C)C[C@H](NC(=O)[C@H](Cc1ccccc1)NC(=O)c1cnccn1)B(O)O [Bortezomib] (partner 0.002 µM) (field: relative viability) = 0.807
